- measurement notes: Human HepG2 cell viability assay in 384 well format
- Format: toxicity, cell-based
- Design: dose 125 nL, time 70.5 hour; concentration not given beside the values
- condition summary: HepG2 cells, read-out: Inhibition
experimental endpoint: cytotoxicity at 70.5 h (%)
I only need the number, in %, no unit after it.

Recorded result, CCN(CCCc1ccccc1C)S(C)(=O)=O , cytotoxicity at 70.5 h: -3.45

Recorded result, C[C@@H]1C[C@H](C(F)(F)F)n2nc(C3CCN(C(=O)C(C)(C)C)CC3)cc2N1 , cytotoxicity at 70.5 h: -6.86

Recorded result, COc1ccc(C(NC(=O)c2cccc[n+]2[O-])C2CC2)cc1 (stereo unspecified) , cytotoxicity at 70.5 h: -3.04

Recorded result, O=C1N(Cc2cccc(Cl)c2)CCC12CCCNC2 (stereo unspecified) , cytotoxicity at 70.5 h: -12.1

Recorded result, Cn1c(Cn2ncc(N3CCCCC3)cc2=O)nc2ccccc21 , cytotoxicity at 70.5 h: 44.3

Recorded result, Cc1ccc(CN2CCC3(CC(C(=O)NCC4CC4)=NO3)C2)cc1C (stereo unspecified) , cytotoxicity at 70.5 h: 27.5

Recorded result, COC(=O)C(NC(=O)c1ccco1)c1cc(F)ccc1F (stereo unspecified) , cytotoxicity at 70.5 h: -15.6

Recorded result, O=C(c1ccccc1)N1CCN(CC(O)c2ccc(F)cc2)CC1 (stereo unspecified) , cytotoxicity at 70.5 h: -11

Recorded result, COc1ccc(OC2CCN(C(=O)CCc3n[nH]c(N)n3)CC2)cc1 , cytotoxicity at 70.5 h: 21.5

Recorded result, O=C(NCc1ccc(CN2CCCC2)cc1)NC1(CO)CCCC1 , cytotoxicity at 70.5 h: 2.2

Recorded result, CS(=O)(=O)N1CCc2c(cccc2NC(=O)CC(F)(F)F)C1 , cytotoxicity at 70.5 h: -1.76

###

- measurement notes: Human HepG2 cell viability assay in 384 well format
- Format: toxicity, cell-based
- Parameters: dose 125 nL, time 70.5 hour; concentration not given beside the values
- condition summary: HepG2 cells, read-out: Inhibition
experimental endpoint: cytotoxicity at 70.5 h (%)
I only need the number, in %, no unit after it.

Recorded result, CCN1CCOCC12CCN(c1ccc(C#N)cc1)CC2 , cytotoxicity at 70.5 h: -6.86

Recorded result, Cc1nc2c(c(NC3CC3)n1)CCN(C(=O)CCc1cccnc1)CC2 , cytotoxicity at 70.5 h: 12.4

Recorded result, CN(C)[C@@H]1CCN(C(=O)c2ccsc2)[C@H]1Cc1cnn(C)c1 , cytotoxicity at 70.5 h: -14.4

Recorded result, CC1CN(C)c2ccccc2CN1C(=O)c1ccncc1 (centres undefined) , cytotoxicity at 70.5 h: 0.805

Recorded result, O=C(NCc1ccccc1)N1CCn2c(Cn3cccn3)cnc2C1 , cytotoxicity at 70.5 h: -2.08

Recorded result, CS(=O)(=O)NCC1CCCN(C(=O)Nc2ccccc2F)C1 (centres undefined) , cytotoxicity at 70.5 h: 1.05

Recorded result, Cc1nc(CN2CCCN(Cc3nc4c(F)cccc4[nH]3)CC2)no1 , cytotoxicity at 70.5 h: -10.4

Recorded result, c1ccc(-c2nnc(C3CCCN(CC4CCCCC4)C3)o2)nc1 (centres undefined) , cytotoxicity at 70.5 h: -7.93

Recorded result, N#Cc1ccccc1N1CCCN(C(=O)CCc2ccsc2)CC1 , cytotoxicity at 70.5 h: 1.39

Recorded result, Cc1nc(-c2ccsc2)ccc1C(=O)NCCN1CCN(C)CC1 , cytotoxicity at 70.5 h: 0.295

Recorded result, Cc1nc(C(=O)N2CCCC2c2cnn(C)c2)ccc1C#N (centres undefined) , cytotoxicity at 70.5 h: 20.3

Recorded result, Cc1ccc(CNC(CN2CCN(C)CC2)c2ccccc2)cc1 (centres undefined) , cytotoxicity at 70.5 h: 3.21

Recorded result, COc1ccc(C2CC(=O)Nc3c2nc2n3CCCC2)cc1OC (centres undefined) , cytotoxicity at 70.5 h: 8.63

Recorded result, O=S(=O)(Nc1ccccn1)c1cc(Cl)cc2c1OCC2 , cytotoxicity at 70.5 h: 4.53

Recorded result, Cc1cc(C(=O)NCC(C)C)c2c(C3CCCN3)noc2n1 (centres undefined) , cytotoxicity at 70.5 h: -5.52

Recorded result, CC(c1ccc(S(N)(=O)=O)cc1)N(C)C(=O)c1ccccc1I (centres undefined) , cytotoxicity at 70.5 h: -5.97

Recorded result, Cc1ccc(CN2C[C@@H](C(=O)O)[C@H](c3cccnc3)C2)s1 , cytotoxicity at 70.5 h: 1.41

Recorded result, Cc1ccc(CCC(=O)N2CCC(Nc3cccnn3)CC2)cc1 , cytotoxicity at 70.5 h: 1.83

Recorded result, Cc1ncc(C(=O)NCCNc2ncnc3sccc23)s1 , cytotoxicity at 70.5 h: -2.99

Recorded result, CN(C)c1ncc(CN2CCC(c3nnsc3S(C)(=O)=O)CC2)cn1 , cytotoxicity at 70.5 h: -19.4

Recorded result, Cc1cc(CN2CCN(C(=O)NCc3ccoc3)CC2)no1 , cytotoxicity at 70.5 h: -1.05

Recorded result, Cc1noc(C)c1NC(=O)N1CCC(NC(=O)OC(C)(C)C)CC1 , cytotoxicity at 70.5 h: -5.75

Recorded result, Cc1ccc2cc(C3(O)CCN(C(=O)CSC(C)C)CC3)ccc2n1 , cytotoxicity at 70.5 h: -6

Recorded result, Cc1cscc1C(=O)Nc1cc(CSCCO)ccn1 , cytotoxicity at 70.5 h: -3.95

###

- measurement notes: Human HepG2 cell viability assay in 384 well format
- Assay type: toxicity, cell-based
- Parameters: dose 125 nL, time 70.5 hour; concentration not given beside the values
- condition summary: HepG2 cells, read-out: Inhibition
Kindly state cytotoxicity at 70.5 h for each of the entries shown.
I only need the number, in %, no unit after it.

Recorded result, Cc1cccc(CN2CC3(CCN(C(=O)C4CC4)CC3)OCC2=O)n1 , cytotoxicity at 70.5 h: 1.74

Recorded result, CCc1[nH]c2ccc(CNC(=O)Cc3c(C)nc(N)nc3C)cc2c1C , cytotoxicity at 70.5 h: 1.33

Recorded result, COCCn1ccc2cc(NC(=O)COC)ccc21 , cytotoxicity at 70.5 h: -3.46

Recorded result, COCc1nc(C(=O)N2CCCC(n3nc(C)nc3C)C2)cs1 (stereo not drawn) , cytotoxicity at 70.5 h: 28.1

Recorded result, O=C(NCc1ccco1)[C@H]1C[C@H]2OCC[C@H]2N(S(=O)(=O)C2CC2)C1 , cytotoxicity at 70.5 h: -12.2

Recorded result, CCC(Nc1nc(C)nc2onc(C)c12)c1cccs1 (stereo not drawn) , cytotoxicity at 70.5 h: -2.98

Recorded result, CN(Cc1cnn(C)c1)C(=O)C1CCCN1Cc1ccccn1 (stereo not drawn) , cytotoxicity at 70.5 h: 26.2

Recorded result, O=C([C@@H]1C[C@@H]2CCN(Cc3ccc4c(c3)OCO4)C[C@@H]2O1)N1CCCC1 , cytotoxicity at 70.5 h: -11.1

Recorded result, CCC(=O)N1CCCC1(C)c1nc(C)no1 (stereo not drawn) , cytotoxicity at 70.5 h: -6.82

Recorded result, CCSCc1nc(O)c2nnn(C3CCN(Cc4ccco4)CC3)c2n1 , cytotoxicity at 70.5 h: 9.06

Recorded result, N[C@H]1CN(C(=O)CCc2cc(Cl)no2)C[C@@H]1c1ccccc1 , cytotoxicity at 70.5 h: 29

Recorded result, O=C([C@@H]1CCO[C@@H]2CCN(Cc3ccsc3)C[C@@H]21)N1CCCC1 , cytotoxicity at 70.5 h: -16.1

Recorded result, O=C([C@@H]1CCO[C@@H]2CCN(CC3CC3)C[C@H]21)N1CCCC1 , cytotoxicity at 70.5 h: -2.49

Recorded result, O=C(Cn1ccc(=O)[nH]c1=O)NCC1Cc2ccccc2O1 (stereo not drawn) , cytotoxicity at 70.5 h: -11.6

Recorded result, Cc1nn(C)c(NC(=O)C2SCCc3ccccc32)c1C (stereo not drawn) , cytotoxicity at 70.5 h: 0.91

Recorded result, NC(=O)CCS(=O)(=O)Cc1ccc(OCC(F)(F)F)cc1 , cytotoxicity at 70.5 h: -9.93

Recorded result, Cc1ccc(C2(CN(C)Cc3sccc3C)CCNCC2)nc1 , cytotoxicity at 70.5 h: 10.6

Recorded result, O=C(Nc1cn[nH]c1)N1CCCCCC1c1ccncc1 (stereo not drawn) , cytotoxicity at 70.5 h: -8.75

Recorded result, N[C@H]1CC[C@@H](NC(=O)c2ccc3nc(-c4ccc(F)cc4)cn3c2)CC1 , cytotoxicity at 70.5 h: -14.6

Recorded result, COc1ccc(C2CC(=O)Nc3nc(N4CCOCC4)sc32)c(OC)c1 (stereo not drawn) , cytotoxicity at 70.5 h: -21.3

Recorded result, O=C(c1cscn1)N1CCc2ncc(CN3CCCC3)n2CC1 , cytotoxicity at 70.5 h: -8.65

Recorded result, COCC(=O)N1CCC[C@]2(C(=O)N(C)C)CN(c3ccccn3)C[C@@H]2C1 , cytotoxicity at 70.5 h: -5.67

Recorded result, O=C(Nc1ccccc1F)c1nn(C2CCS(=O)(=O)C2)c2c1CCCC2 (stereo not drawn) , cytotoxicity at 70.5 h: -7.2

src = ChEMBL document CHEMBL3507680
